The values you see were collected from patent US20240391948A1.

Test system: U937 cells (human monocytic cell line)
assay.overview: Pam2CSK4-induced TNF-α secretion inhibition in PMA-differentiated U937 cells
Type: cell-based
run.parameters: U-937, U937 cells differentiated with PMA, read-out: TNF-α production inhibition grade (IC50)
Method: To evaluate anti-inflammatory efficacy, U937 cells (human monocytic cell line) were differentiated into macrophages using PMA (phorbol 12-myristate 13-acetate) and then induced an inflammatory response with Pam2CSK4 (Pam2CysSerLys4) or BzATP (2′(3′)—O-(4-Benzoylbenzoyl)adenosine 5′-triphosphate), the efficacy of taurine-bile acid derivatives in suppressing inflammatory cytokine (IL-1β, TNF-α) production was measured. […]
Collected IC50 values appear next to each entry.
quantity.kind: IC50

[
  {
    "compound": "CC[C@H]1[C@@H](O)[C@@H]2[C@H](C[C@H](O)[C@]3(C)[C@@H]([C@H](C)CCC(=O)N[C@@H](CS(=O)(=O)O)c4ccccc4)CC[C@@H]23)[C@@]2(C)CC[C@@H](O)C[C@@H]12",
    "quantity.kind": "IC50",
    "value.reported": "1000 to 2000 nM"
  },
  {
    "compound": "CC[C@H]1[C@@H](O)[C@@H]2[C@H](CC[C@]3(C)[C@@H]([C@H](C)CCC(=O)N4CCC[C@H]4CS(=O)(=O)O)CC[C@@H]23)[C@@]2(C)CC[C@@H](O)C[C@@H]12",
    "quantity.kind": "IC50",
    "value.reported": "500 to 1000 nM"
  },
  {
    "compound": "C[C@H](CCC(=O)N(CCO)CCS(=O)(=O)O)[C@H]1CC[C@H]2[C@@H]3[C@H](O)C[C@@H]4C[C@H](O)CC[C@]4(C)[C@H]3C[C@H](O)[C@]12C",
    "quantity.kind": "IC50",
    "value.reported": "1000 to 2000 nM"
  },
  {
    "compound": "C[C@H](CCC(=O)N1CC[C@@H](S(=O)(=O)O)C1)[C@H]1CC[C@H]2[C@@H]3CC[C@@H]4C[C@H](O)CC[C@]4(C)[C@H]3C[C@H](O)[C@]12C",
    "quantity.kind": "IC50",
    "value.reported": "< 500 nM"
  },
  {
    "compound": "C[C@H](CCC(=O)N1CCC(S(=O)(=O)O)CC1)[C@H]1CC[C@H]2[C@@H]3[C@H](O)C[C@@H]4C[C@H](O)CC[C@]4(C)[C@H]3C[C@H](O)[C@]12C",
    "quantity.kind": "IC50",
    "value.reported": "≥ 2000 nM"
  },
  {
    "compound": "C[C@H](CCC(=O)N[C@H](CO)CS(=O)(=O)O)[C@H]1CC[C@H]2[C@@H]3CC[C@@H]4C[C@H](O)CC[C@]4(C)[C@H]3CC[C@]12C",
    "quantity.kind": "IC50",
    "value.reported": "500 to 1000 nM"
  },
  {
    "compound": "CC[C@H]1[C@@H](O)[C@@H]2[C@H](C[C@H](O)[C@]3(C)[C@@H]([C@H](C)CCC(=O)N4CCC[C@H](S(=O)(=O)O)C4)CC[C@@H]23)[C@@]2(C)CC[C@@H](O)C[C@@H]12",
    "quantity.kind": "IC50",
    "value.reported": "1000 to 2000 nM"
  },
  {
    "compound": "C[C@H](CCC(=O)N[C@H](CS(=O)(=O)O)c1ccccc1)[C@H]1CC[C@H]2[C@@H]3CC[C@@H]4C[C@H](O)CC[C@]4(C)[C@H]3C[C@H](O)[C@]12C",
    "quantity.kind": "IC50",
    "value.reported": "500 to 1000 nM"
  },
  {
    "compound": "C[C@H](CCC(=O)NC(C)(C)CS(=O)(=O)O)[C@H]1CC[C@H]2[C@@H]3[C@H](O)C[C@@H]4C[C@H](O)CC[C@]4(C)[C@H]3C[C@H](O)[C@]12C",
    "quantity.kind": "IC50",
    "value.reported": "1000 to 2000 nM"
  },
  {
    "compound": "C[C@H](CCC(=O)N(CCN(C)C)CCS(=O)(=O)O)[C@H]1CC[C@H]2[C@@H]3CC[C@@H]4C[C@H](O)CC[C@]4(C)[C@H]3CC[C@]12C",
    "quantity.kind": "IC50",
    "value.reported": "500 to 1000 nM"
  },
  {
    "compound": "C[C@H](CCC(=O)NC[C@@H](C)S(=O)(=O)O)[C@H]1CC[C@H]2[C@@H]3[C@H](O)C[C@@H]4C[C@H](O)CC[C@]4(C)[C@H]3C[C@H](O)[C@]12C",
    "quantity.kind": "IC50",
    "value.reported": "≥ 2000 nM"
  },
  {
    "compound": "C[C@H](CCC(=O)N(CCS(=O)(=O)O)Cc1cccnc1)[C@H]1CC[C@H]2[C@@H]3CC[C@@H]4C[C@H](O)CC[C@]4(C)[C@H]3C[C@H](O)[C@]12C",
    "quantity.kind": "IC50",
    "value.reported": "1000 to 2000 nM"
  },
  {
    "compound": "CC[C@H]1[C@@H](O)[C@@H]2[C@H](CC[C@]3(C)[C@@H]([C@H](C)CCC(=O)NC[C@H](C)S(=O)(=O)O)CC[C@@H]23)[C@@]2(C)CC[C@@H](O)C[C@@H]12",
    "quantity.kind": "IC50",
    "value.reported": "500 to 1000 nM"
  },
  {
    "compound": "C[C@H](CS(=O)(=O)O)NC(=O)CC[C@@H](C)[C@H]1CC[C@H]2[C@@H]3CC[C@@H]4CC(=O)CC[C@]4(C)[C@H]3CC[C@]12C",
    "quantity.kind": "IC50",
    "value.reported": "500 to 1000 nM"
  },
  {
    "compound": "C[C@H](CCC(=O)NC(C)(C)CS(=O)(=O)O)[C@H]1CC[C@H]2[C@@H]3CC[C@@H]4C[C@H](O)CC[C@]4(C)[C@H]3CC[C@]12C",
    "quantity.kind": "IC50",
    "value.reported": "< 500 nM"
  },
  {
    "compound": "CCN(CC)CCNC(=O)CC[C@@H](C)[C@H]1CC[C@H]2[C@@H]3CC[C@@H]4C[C@H](O)CC[C@]4(C)[C@H]3C[C@H](O)[C@]12C",
    "quantity.kind": "IC50",
    "value.reported": "500 to 1000 nM"
  },
  {
    "compound": "C[C@H](CCC(=O)NC1(CS(=O)(=O)O)CC1)[C@H]1CC[C@H]2[C@@H]3CC[C@@H]4C[C@H](O)CC[C@]4(C)[C@H]3CC[C@]12C",
    "quantity.kind": "IC50",
    "value.reported": "< 500 nM"
  },
  {
    "compound": "C[C@H](CS(=O)(=O)O)NC(=O)CC[C@@H](C)[C@H]1CC[C@H]2[C@@H]3[C@H](O)C[C@@H]4C[C@H](O)CC[C@]4(C)[C@H]3C[C@H](O)[C@]12C",
    "quantity.kind": "IC50",
    "value.reported": "< 500 nM"
  },
  {
    "compound": "C[C@H](CCC(=O)NC1(CS(=O)(=O)O)CC1)[C@H]1CC[C@H]2[C@@H]3CC[C@@H]4C[C@H](O)CC[C@]4(C)[C@H]3C[C@H](O)[C@]12C",
    "quantity.kind": "IC50",
    "value.reported": "500 to 1000 nM"
  }
]
